Entries and their measured EOSINOPHIL follow.
# Species: Rattus norvegicus
# Assay Info: DrugMatrix - Regimen: Daily Repeat
# Format: toxicity, organism-based, Sprague-Dawley
# Parameters: regimen Daily Repeat, gender Male, age 6-8 weeks
# Details: in vivo, po, 50 mg/kg, 120 h, tissue Blood, route oral GAVAGE, dose level Low, time 5 day, vehicle .5 % CMC

>  <Compound>
Cc1cccc(C)c1OCC(C)N (centres undefined)

>  <EOSINOPHIL [%]>
1.67

$$$$
>  <Compound>
CCN1CCC[C@H]1CNC(=O)c1cc(S(N)(=O)=O)ccc1OC [LEVOSULPIRIDE]

>  <EOSINOPHIL [%]>
0.33

$$$$
>  <Compound>
NC1CCN(c2nc3c(cc2F)c(=O)c(C(=O)O)cn3-c2ccc(F)cc2F)C1 (centres undefined)

>  <EOSINOPHIL [%]>
0

$$$$
>  <Compound>
CN(C)[C@@H]1C(O)=C(C(N)=O)C(=O)[C@@]2(O)C(O)=C3C(=O)c4c(O)ccc(Cl)c4[C@@](C)(O)[C@H]3C[C@@H]12

>  <EOSINOPHIL [%]>
0

$$$$

* * *

Entries and their measured ERYTHROCYTE COUNT follow.
# Organism: Rattus norvegicus
# Assay Info: DrugMatrix - Regimen: Daily Repeat
# Type: toxicity, organism-based, Sprague-Dawley
# Design: regimen Daily Repeat, gender Male, age 6-8 weeks
# Details: in vivo, po, 10 mg/kg, 72 h, tissue Blood, route oral GAVAGE, dose level Low, time 3 day, vehicle .5 % CMC

>  <Compound>
O=C1CN=C(c2ccccc2Cl)c2cc([N+](=O)[O-])ccc2N1 [CLONAZEPAM]

>  <ERYTHROCYTE COUNT>
5.48 x10E6/uL

$$$$
>  <Compound>
CNCCC(Oc1ccc(C(F)(F)F)cc1)c1ccccc1 (centres undefined) [FLUOXETINE]

>  <ERYTHROCYTE COUNT>
6.11 x10E6/uL

$$$$
>  <Compound>
O=C1C(CC[S+]([O-])c2ccccc2)C(=O)N(c2ccccc2)N1c1ccccc1 (centres undefined) [SULFINPYRAZONE]

>  <ERYTHROCYTE COUNT>
5.31 x10E6/uL

$$$$
>  <Compound>
Fc1ccc(C(c2ccc(F)cc2)N2CCN(C/C=C/c3ccccc3)CC2)cc1 [FLUNARIZINE]

>  <ERYTHROCYTE COUNT>
6.09 x10E6/uL

$$$$

* * *

# Species on record: Rattus norvegicus
# Assay Info: DrugMatrix - Regimen: Daily Repeat
# Format: toxicity, organism-based, Sprague-Dawley
# Design: regimen Daily Repeat, gender Male, age 6-8 weeks
# Details: in vivo, po, 0 mg/kg, 72 h, tissue Blood, route oral GAVAGE, dose level Control, time 3 day, vehicle .5 % CMC

>  <Molecule>
CN/C(=N/CCSCc1nc[nH]c1C)NC#N [CIMETIDINE]

>  <NUCLEATED RED BLOOD CELLS>
0 /100WBC

$$$$
>  <Molecule>
COC1=C(OC)C(=O)C(CCCCCCCCCCO)=C(C)C1=O [IDEBENONE]

>  <NUCLEATED RED BLOOD CELLS>
0 /100WBC

$$$$
>  <Molecule>
Cn1c(=O)c2c(ncn2CC(O)CO)n(C)c1=O (stereo unspecified) [DYPHYLLINE]

>  <NUCLEATED RED BLOOD CELLS>
0.67 /100WBC

$$$$
>  <Molecule>
COc1cc2nc(N3CCN(C(=O)c4ccco4)CC3)nc(N)c2cc1OC [PRAZOSIN]

>  <NUCLEATED RED BLOOD CELLS>
0 /100WBC

$$$$
>  <Molecule>
C[C@H]1O[C@@H](n2cc(F)c(=O)[nH]c2=O)[C@H](O)[C@@H]1O [DOXIFLURIDINE]

>  <NUCLEATED RED BLOOD CELLS>
0 /100WBC

$$$$
>  <Molecule>
O=C1C(CC[S+]([O-])c2ccccc2)C(=O)N(c2ccccc2)N1c1ccccc1 (stereo unspecified) [SULFINPYRAZONE]

>  <NUCLEATED RED BLOOD CELLS>
0 /100WBC

$$$$

Sourced from ChEMBL document CHEMBL3885881
